Cited source: patent US20230242601A1

- Assayed System: FABP3 (Homo sapiens, UniProt P05413)
- Sequence (P05413 2-133 limits assumed): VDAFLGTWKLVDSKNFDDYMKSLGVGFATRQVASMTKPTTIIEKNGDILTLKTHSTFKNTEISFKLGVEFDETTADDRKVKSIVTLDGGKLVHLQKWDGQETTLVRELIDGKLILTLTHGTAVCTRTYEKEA
- Protocol Summary: QCM (quartz crystal microbalance) binding analysis of immobilized FABP3 with α-synuclein or its peptides
- Experimental Parameters: QCM, immobilized FABP3
- Description: The substrate was washed with purified water, then 500 μL of a Ni solution (20 mM HEPES-NaOFH buffer, pH 7.5, 150 mM NaCl, 50 mM EDTA, 10 mM NiSO4) was added, and the substrate was allowed to stand at room temperature for 10 minutes. […] After the measurement, Kd, kon, and koff were each calculated with AQUA 2.0 software (Initium). […]
Readout Type: binding affinity for FABP3 compared with the natural sequence (SynP130-140), in words

Substance	Result
Y136F: SynP130-140 mutant in which tyrosine at position 136 was changed to phenylalanine (EEGYQDFEPEA)	about the same affinity
Y136W: peptide in which the 136th tyrosine in SynP130-140 was replaced by tryptophan (EEGYQDWEPEA)	about the same affinity

====

- Assayed System: FABP3 (Homo sapiens, UniProt P05413)
- Protocol Summary: QCM (quartz crystal microbalance) binding analysis of immobilized FABP3 with α-synuclein or its peptides
- Experimental Parameters: QCM, binding to FABP3
Where no end group is shown, it is not given here.
Readout Type: Kd (nM)
Report only the number, with the unit nM understood.

Reported Kd for EEGFQDYEPEA [Y133F] was 0.1
